A collection of molecules and their measured ED20
Tested on: Cavia porcellus
assay method text: Effective dose in vivo for cardiac refractoriness (ERP) using paced guinea pig model
Format: functional
Record the value in mg/kg, omitting the unit from your answer.

CN1Cc2ccccc2C(c2ccccc2)N=C1CCC1CCCCC1.Cl (stereo unspecified): 0.1

# input What ED20 value was documented for this molecule, CN1Cc2ccccc2C(c2ccccc2)N=C1N1CCCC1 (stereo unspecified) ?
# output 0.2

# input Quick check: ED20 of CN1Cc2ccccc2C(c2ccccc2)N=C1COc1ccccc1.Cl (stereo unspecified) ?
# output 0.3

----------
Tested on: Canis familiaris
assay method text: Minimal effective dose that resulted in significant reduction in PVC frequency in conscious dogs by po administration after 24 hours of coronary artery ligation
Format: functional
condition info: Canis lupus familiaris, read-out: MED
In this section, each of the molecules is paired with its reported minimal effective dose.
Please give a number only; it is taken to be in mg/kg.

CN1Cc2ccccc2C(c2ccccc2)N=C1CCc1ccc(Cl)cc1.O=C(O)/C=C/C(=O)O (stereo not drawn): 3
CN1Cc2ccccc2C(c2ccccc2)N=C1CCc1ccccc1.Cl (stereo not drawn): 3
CC(C)N(CCC(C(N)=O)(c1ccccc1)c1ccccn1)C(C)C (stereo not drawn) [DISOPYRAMIDE]: 40
CN1Cc2ccccc2[C@@H](c2ccccc2)N=C1CCc1ccccc1.Cl: 3
CCC1=NC(C)(c2ccccc2)c2ccccc2CN1C.O=C(O)/C=C/C(=O)O (stereo not drawn): 10

# input Give the measured minimal effective dose of "CN1Cc2ccccc2[C@H](c2ccccc2)N=C1CCc1ccccc1.Cl" .
# output 10

# input // lookup minimal effective dose for C=C[C@H]1CN2CC[C@H]1C[C@@H]2[C@@H](O)c1ccnc2ccc(OC)cc12 [QUINIDINE]
# output 30

# input Need minimal effective dose of CCC1=NC(c2ccccc2)c2ccccc2CN1C.Cl (stereo not drawn) , thanks.
# output 10

# input I have this molecule here, "CCC1=N[C@H](c2ccccc2)c2ccccc2CN1C.Cl" , and I need its recorded minimal effective dose.
# output 10

# input Returns the measured minimal effective dose for the input molecule. Input: O=C(NCC1CCCCN1)c1cc(OCC(F)(F)F)ccc1OCC(F)(F)F (stereo not drawn) [FLECAINIDE]
# output 10

# input Request the reported minimal effective dose associated with CN1Cc2ccccc2C(C)(c2ccccc2)N=C1CC(O)c1ccccc1 (stereo not drawn)
# output 10

# input Item CCOC(=O)C1(c2ccccc2)N=C(CC)N(C)Cc2ccccc21.O=C(O)/C=C/C(=O)O (stereo not drawn) has what recorded minimal effective dose?
# output 3

----------
tgt: Sodium channel protein type 5 subunit alpha (cardiac sodium channel) (Rattus norvegicus, UniProt P15389)
Sequence (P15389 whole entry): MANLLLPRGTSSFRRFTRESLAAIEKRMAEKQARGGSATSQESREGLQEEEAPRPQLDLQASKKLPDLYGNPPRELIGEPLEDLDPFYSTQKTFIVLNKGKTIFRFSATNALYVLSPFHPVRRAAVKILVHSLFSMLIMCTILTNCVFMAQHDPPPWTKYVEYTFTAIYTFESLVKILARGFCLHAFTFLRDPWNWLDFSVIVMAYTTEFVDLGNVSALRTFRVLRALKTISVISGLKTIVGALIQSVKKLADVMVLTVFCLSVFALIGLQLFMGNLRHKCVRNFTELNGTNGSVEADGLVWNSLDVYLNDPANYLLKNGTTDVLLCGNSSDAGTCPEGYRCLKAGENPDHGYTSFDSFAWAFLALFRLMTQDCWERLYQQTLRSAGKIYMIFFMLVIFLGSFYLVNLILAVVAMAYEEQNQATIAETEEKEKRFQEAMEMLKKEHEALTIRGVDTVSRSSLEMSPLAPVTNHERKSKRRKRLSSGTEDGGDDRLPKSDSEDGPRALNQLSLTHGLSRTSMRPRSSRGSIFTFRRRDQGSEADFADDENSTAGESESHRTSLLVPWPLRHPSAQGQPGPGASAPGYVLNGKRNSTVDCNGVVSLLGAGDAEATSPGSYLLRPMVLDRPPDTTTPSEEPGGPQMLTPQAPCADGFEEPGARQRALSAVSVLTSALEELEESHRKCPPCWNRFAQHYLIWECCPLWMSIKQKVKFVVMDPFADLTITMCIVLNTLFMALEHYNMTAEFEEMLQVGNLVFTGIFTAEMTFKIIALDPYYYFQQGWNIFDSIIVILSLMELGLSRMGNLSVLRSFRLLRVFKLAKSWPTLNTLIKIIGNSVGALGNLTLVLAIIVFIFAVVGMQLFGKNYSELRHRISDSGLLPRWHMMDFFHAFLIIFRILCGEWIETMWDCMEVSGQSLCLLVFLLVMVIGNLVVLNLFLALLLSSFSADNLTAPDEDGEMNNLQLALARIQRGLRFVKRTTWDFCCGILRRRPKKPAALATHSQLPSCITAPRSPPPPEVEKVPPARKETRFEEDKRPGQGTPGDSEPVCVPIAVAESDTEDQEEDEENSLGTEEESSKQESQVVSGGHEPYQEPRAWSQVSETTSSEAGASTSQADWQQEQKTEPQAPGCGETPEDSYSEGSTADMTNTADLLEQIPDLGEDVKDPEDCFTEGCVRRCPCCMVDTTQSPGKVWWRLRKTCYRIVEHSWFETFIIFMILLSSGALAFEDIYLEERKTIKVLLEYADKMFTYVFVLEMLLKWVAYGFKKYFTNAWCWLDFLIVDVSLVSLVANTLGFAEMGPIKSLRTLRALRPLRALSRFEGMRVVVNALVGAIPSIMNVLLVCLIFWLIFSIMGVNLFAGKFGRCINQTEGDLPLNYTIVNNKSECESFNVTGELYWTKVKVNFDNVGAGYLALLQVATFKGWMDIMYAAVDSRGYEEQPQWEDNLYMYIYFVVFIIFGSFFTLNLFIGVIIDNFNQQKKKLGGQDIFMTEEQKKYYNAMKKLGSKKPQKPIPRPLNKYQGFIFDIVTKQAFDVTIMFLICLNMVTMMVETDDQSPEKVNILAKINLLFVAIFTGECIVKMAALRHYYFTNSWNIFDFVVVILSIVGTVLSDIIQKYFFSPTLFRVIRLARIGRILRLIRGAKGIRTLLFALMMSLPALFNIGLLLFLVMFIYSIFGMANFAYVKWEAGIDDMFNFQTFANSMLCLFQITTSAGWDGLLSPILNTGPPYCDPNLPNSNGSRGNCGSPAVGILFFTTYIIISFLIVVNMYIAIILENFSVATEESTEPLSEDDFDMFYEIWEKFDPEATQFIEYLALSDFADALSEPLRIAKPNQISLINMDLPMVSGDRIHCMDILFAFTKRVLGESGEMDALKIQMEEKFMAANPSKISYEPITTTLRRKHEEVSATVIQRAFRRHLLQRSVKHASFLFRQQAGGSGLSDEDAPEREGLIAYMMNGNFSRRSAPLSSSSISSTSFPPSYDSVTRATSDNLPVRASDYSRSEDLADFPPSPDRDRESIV
assay method text: in vitro
condition info: sodium channel from cardiac myocytes, probe [3H]batrachotoxin ([3H]BTX)
Description: Percentage inhibition of specific binding of [3H]batrachotoxin [3H]BTX) in sodium channel from cardiac myocytes at 10 uM
So basically, the class depends on measured inhibition at 10 µM, and the ranges are lower band (below 60%), central band (60% to below 90%), upper band (90% or more)

CN1Cc2ccccc2C(c2ccccc2)N=C1N1CCCC1 (stereo not drawn): upper band
CC(C)NCC(O)c1ccc(NS(C)(=O)=O)cc1 (stereo not drawn): lower band
CC1=NC(C)(c2ccccc2)c2ccccc2CN1C.O=C(O)/C=C/C(=O)O (stereo not drawn): central band
CCC1=NC(c2ccccc2)c2ccccc2C(c2ccccc2)N1C (stereo not drawn): upper band
COc1ccc(C2N=C(CCc3ccccc3)N(C)Cc3ccccc32)cc1.Cl (stereo not drawn): upper band

# input Using the reported inhibition at 10 µM, which band applies to CCCCC1=NC(c2ccccc2)c2ccccc2CN1C.Cl (stereo not drawn) ?
# output central band

# input For CC(C)C1=NC(C)(c2ccccc2)c2ccccc2CN1C (stereo not drawn) , which inhibition at 10 µM bin applies?
# output lower band

# input Classify this molecule: CN1Cc2ccccc2C(c2ccccc2)N=C1CN1CCCCC1.O=C(O)/C=C/C(=O)O (stereo not drawn)
# output upper band

# input State the band of CCOC(=O)C1(c2ccccc2)N=C(CC)N(C)Cc2ccccc21.O=C(O)/C=C/C(=O)O (stereo not drawn)
# output lower band

----------
Tested on: Cavia porcellus
assay method text: Effective dose in vivo for cardiac refractoriness (ERP) using paced guinea pig model
Assay type: functional
In this section, each of the compounds is paired with its reported ED20.
The figure you give is taken to be in mg/kg; do not add the unit.

Observe how each entry below is paired with its result.
COc1ccc(CCC2=NC(c3ccccc3)c3ccccc3CN2C)cc1.Cl (stereo unspecified): 0.1
CCCCC1=NC(c2ccccc2)c2ccccc2CN1C.Cl (stereo unspecified): 0.1

# input API: value(readout=ED20, system=Cavia porcellus) for record CCC1=NC(c2ccccc2)c2ccc3ccccc3c2CN1C (stereo unspecified)
# output 0.3

# input Record CCC1=NC(c2cccc3ccccc23)c2ccccc2CN1C (stereo unspecified) : what is its ED20 with Cavia porcellus?
# output 0.6

----------
tgt: Sodium channel protein type 5 subunit alpha (cardiac sodium channel) (Rattus norvegicus, UniProt P15389)
assay method text: in vitro
condition info: sodium channel from cardiac myocytes, probe [3H]batrachotoxin ([3H]BTX)
test readout: inhibition at 10 µM

# input Report inhibition at 10 µM for COc1ccc(CCC2=NC(c3ccccc3)c3ccccc3CN2C)cc1.Cl (configuration not stated) please.
# output 91%

# input Quick one: inhibition at 10 µM for CN1Cc2ccccc2C(c2ccccc2)N=C1CCc1ccc(Cl)cc1.O=C(O)/C=C/C(=O)O (configuration not stated) ?
# output 97%

----------
Tested on: Cavia porcellus
assay method text: In vivo index of cardiac contractility using paced guinea pig model
Format: functional
test readout: dP/dt20 (mg/kg)
Numbers only; they are read as mg/kg.

Past entries and their recorded results:
C=C[C@H]1CN2CC[C@H]1C[C@@H]2[C@@H](O)c1ccnc2ccc(OC)cc12: 2.5
CN1Cc2ccccc2C(c2ccccc2)N=C1COc1ccc(Cl)cc1 (stereo unspecified): 0.17
CCC1=N[C@@H](c2ccccc2)c2ccccc2CN1C.Cl: 0.09
COc1ccc(CCC2=NC(c3ccccc3)c3ccccc3CN2C)cc1.Cl (stereo unspecified): 0.66
CN1Cc2ccccc2C(Cc2ccccc2)N=C1CCc1ccccc1.O=C(O)/C=C/C(=O)O (stereo unspecified): 0.04

// below: dP/dt20 requested for another compound
# input Given CN1Cc2ccccc2C(c2ccccc2)N=C1CCc1ccccc1.Cl (stereo unspecified) , state its recorded dP/dt20.
# output 0.02

----------
Test system: Cavia porcellus
assay method text: In vivo index of cardiac contractility using paced guinea pig model
Format: functional
We begin with a simple list: items and their reported dP/dt20.
Kindly answer with a numeric value in mg/kg, unit omitted.

// known answers, use as guide
CN1Cc2ccccc2[C@@H](c2ccccc2)N=C1CCc1ccccc1.Cl: 0.03
COc1ccc(C2N=C(CCc3ccccc3)N(C)Cc3ccccc32)cc1.Cl (stereo unspecified): 0.1
COc1ccc(C(=O)Nc2ccccc2CCC2CCCCN2C)cc1 (stereo unspecified) [ENCAINIDE]: 0.003
CCC1=NC(Cc2ccccc2)c2ccccc2CN1C (stereo unspecified): 0.2
CN1Cc2ccccc2C(c2ccccc2)N=C1CCCc1ccccc1.Cl (stereo unspecified): 0.12

# input Give recorded dP/dt20 with Cavia porcellus for the following molecule: CCCCCC1=NC(c2ccccc2)c2ccccc2CN1C.Cl (stereo unspecified)
# output 0.08

----------
Test system: Cavia porcellus
assay method text: Effective dose in vivo for cardiac refractoriness (ERP) using paced guinea pig model
Type: functional
# reported ED20; entries follow
Write the number in mg/kg without appending the unit.

CCC1=NC(c2ccccc2)c2ccccc2CN1C.Cl (stereo not given): 0.6
CN1Cc2ccccc2[C@H](c2ccccc2)N=C1CCc1ccccc1.Cl: 0.02
CCOC(=O)C1(c2ccccc2)N=C(CC)N(C)Cc2ccccc21.O=C(O)/C=C/C(=O)O (stereo not given): 0.4
CN1Cc2ccccc2C(C)(c2ccccc2)N=C1CCc1ccccc1 (stereo not given): 0.34

# input Form field: reported ED20 of CN1Cc2ccccc2C(Cc2ccccc2)N=C1CCc1ccccc1.O=C(O)/C=C/C(=O)O (stereo not given)
# output 0.2

----------
tgt: Sodium channel protein type 5 subunit alpha (cardiac sodium channel) (Rattus norvegicus)
assay method text: in vitro
condition info: sodium channel from cardiac myocytes, probe [3H]batrachotoxin ([3H]BTX)
// reported inhibition at 10 µM per item
Give the value in % but do not write % after it.

As a guide, the following entries are already answered.
CCCC1=NC(c2ccccc2)c2ccccc2CN1C.Cl (stereo not drawn): 72
CN1Cc2ccccc2C(C)(c2ccccc2)N=C1CCc1ccccc1 (stereo not drawn): 97
CN1Cc2ccccc2C(c2ccccc2)N=C1Cc1ccccc1.Cl (stereo not drawn): 95
CN1Cc2ccccc2C(C)(c2ccccc2)N=C1CN1CCOCC1 (stereo not drawn): 51
CN1Cc2ccccc2C(C)(c2ccccc2)N=C1CCl (stereo not drawn): 82

We now examine a further molecule.
# input So what does the record say about inhibition at 10 µM for CN1CCN(CC2=NC(c3ccccc3)c3ccccc3CN2C)CC1.O=C(O)/C=C/C(=O)O (stereo not drawn) ?
# output 38

----------
System: Cavia porcellus
assay method text: Effective dose in vivo for cardiac refractoriness (ERP) using paced guinea pig model
Type: functional
Checkbox rule: ED20 lower than 0.6 mg/kg = 1.0; ED20 not lower than 0.6 mg/kg = 0.0.

Answered examples (5):
CCC1=NC(C(C)=O)(c2ccccc2)c2ccccc2CN1C.O=C(O)/C=C/C(=O)O (stereo not drawn): 0.0
CN1Cc2ccccc2C(C)(c2ccccc2)N=C1CCl (stereo not drawn): 1.0
CN1Cc2ccccc2C(c2ccccc2)N=C1Cc1ccccc1.Cl (stereo not drawn): 1.0
CC1=NC(c2ccccc2)c2ccccc2CN1C (stereo not drawn): 0.0
CC(C)C1=NC(C)(c2ccccc2)c2ccccc2CN1C (stereo not drawn): 0.0

# input # check: ED20 < 0.6 mg/kg for CC(C)NCC(O)c1ccc(NS(C)(=O)=O)cc1 (stereo not drawn) [SOTALOL]
# output 0.0

# input Please state whether ED20 is below 0.6 mg/kg for CCC1=NC(COC)(c2ccccc2)c2ccccc2CN1C (stereo not drawn)
# output 0.0

# input Is it true that ED20 reported for CCC1=NC(C)(c2ccccc2)c2ccccc2CN1C.O=C(O)/C=C/C(=O)O (stereo not drawn) is less than 0.6 mg/kg?
# output 0.0

# input Given CCC1=NC(CC)(c2ccccc2)c2ccccc2CN1C (stereo not drawn) , is recorded ED20 strictly lower than 0.6 mg/kg?
# output 1.0

# input Say whether its ED20 is strictly beneath 0.6 mg/kg. Entry: CN1Cc2ccccc2C(c2ccccc2)N=C1N.Cl (stereo not drawn)
# output 0.0

The measurements presented in this section are drawn from ChEMBL document CHEMBL1126878.
